Record form. Attribute: melting point. Fill in for each entry.

Cl.N[C@H](C(=O)NCC(=O)N1c2ccccc2C=Cc2ccccc21)c1ccccc1    192 to 233 °C
O=C(CNC1c2ccccc2-c2ccccc21)N1CCCc2ccccc21    82 to 84 °C
CC(C)N(C(=O)CNCC(c1ccccc1)c1ccccc1)c1ccccc1.Cl    240 to 243 °C
O=C(NCc1ccccc1)C(c1ccccc1)N(Cc1ccccc1)Cc1ccccc1 (racemic)    109 to 119.5 °C

We next turn to a different molecule, shown below.
stdin: Consider the molecule `Cl.O=C(CNCC(c1ccccc1)c1ccccc1)N1CCc2ccccc2C1` and give its measured melting point.
stdout: 72 to 78 °C
